molecular target: UniProt:Q00534
Sequence (Q00534 whole entry): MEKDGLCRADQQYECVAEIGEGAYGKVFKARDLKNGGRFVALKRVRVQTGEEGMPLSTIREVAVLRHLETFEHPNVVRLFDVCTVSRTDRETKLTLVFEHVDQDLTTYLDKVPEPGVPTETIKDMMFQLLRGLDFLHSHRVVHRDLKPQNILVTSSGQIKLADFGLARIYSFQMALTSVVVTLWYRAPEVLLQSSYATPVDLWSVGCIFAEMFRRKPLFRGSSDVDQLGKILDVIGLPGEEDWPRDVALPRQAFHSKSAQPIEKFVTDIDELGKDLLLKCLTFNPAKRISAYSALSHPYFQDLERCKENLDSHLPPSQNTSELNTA
Think of 0.2 °C as a floor: if ΔTm stands on it or above, it is y; beneath it, n.

[
  {
    "compound": "CCCCc1c(-c2ccc(O)cc2)[nH]c2nccnc12",
    "assignedLabel": "y"
  },
  {
    "compound": "COC1=C2C[C@@H](C)C[C@H](OC)[C@H](O)[C@@H](C)/C=C(\\C)[C@H](OC(N)=O)[C@@H](OC)/C=C\\C=C(/C)C(=O)NC(=CC1=O)C2=O",
    "assignedLabel": "n"
  },
  {
    "compound": "COc1ccc(CNc2nc(N(CCO)CCO)nc3c2ncn3C(C)C)cc1",
    "assignedLabel": "n"
  },
  {
    "compound": "CN1CCc2[nH]c(=S)c(C#N)c(-c3cccs3)c2C1",
    "assignedLabel": "n"
  },
  {
    "compound": "NCCNc1ncc(C(N)=O)c(Nc2cccc(C(F)(F)F)c2)n1",
    "assignedLabel": "y"
  },
  {
    "compound": "C[C@@H](N)[C@H]1CC[C@H](C(=O)Nc2ccncc2)CC1",
    "assignedLabel": "y"
  },
  {
    "compound": "O=c1c(O)c(-c2ccc(O)c(O)c2)oc2cc(O)cc(O)c12",
    "assignedLabel": "y"
  },
  {
    "compound": "CCOc1cc(/C=C(\\C#N)C(N)=O)cc(CSc2ccccc2)c1O",
    "assignedLabel": "n"
  },
  {
    "compound": "O=C(O)/C=C/c1cc(CO)ccc1CO",
    "assignedLabel": "y"
  },
  {
    "compound": "COc1ccc2c(c[n+](C)c3c4cc5c(cc4ccc23)OCO5)c1OC [CHELERYTHRINE CHLORIDE]",
    "assignedLabel": "n"
  },
  {
    "compound": "O=C1Nc2ccccc2/C1=C1/Nc2ccccc2/C1=N\\O",
    "assignedLabel": "y"
  },
  {
    "compound": "Nc1n[nH]c2nnc(-c3c(-c4ccccc4)nn4ccccc34)cc12",
    "assignedLabel": "y"
  },
  {
    "compound": "CCCNC(=O)Nc1ccc(Oc2ncnc3cc(OC)c(OC)cc23)cc1Cl",
    "assignedLabel": "y"
  },
  {
    "compound": "CC(C)(C)n1nc(-c2ccc(Cl)cc2)c2c(N)ncnc21",
    "assignedLabel": "n"
  },
  {
    "compound": "O=C1Nc2ccc(I)cc2/C1=C\\c1cc(Br)c(O)c(Br)c1",
    "assignedLabel": "y"
  },
  {
    "compound": "CN(C)c1ccc(CC2C(=O)Nc3ccccc32)cc1 (stereo unspecified)",
    "assignedLabel": "y"
  },
  {
    "compound": "O=C1C=C2C(=Nc3c2c2c(c4c3=NC3=C4CCC=C3)C=NC=2)CC1",
    "assignedLabel": "y"
  }
]
